system: Mus musculus; test: Neurotoxicity in albino mouse assessed as minimal motor impairment at 100 mg/kg, ip after 4 hrs by rotorod test; type: toxicity, organism-based; design: dose 100 mg/kg, route intraperitoneal; settings: in vivo
Observed property: Activity

Solved cases (5 shown):
Compound	Activity
COc1ccc2c(=O)c3cccc(CNC(C)CO)c3oc2c1.Cl (racemic)	Toxic
CC[C@H](CO)NCc1cccc2c(=O)c3ccc(OC)cc3oc12	Non-toxic
CC(C)(CO)NCc1ccc2oc3ccc(Cl)cc3c(=O)c2c1	Non-toxic
C[C@@H](CO)NCc1ccc2oc3ccc(Cl)cc3c(=O)c2c1	Non-toxic
CCC(CO)NCc1ccc2oc3cc(OC)ccc3c(=O)c2c1 (racemic)	Non-toxic

Now consider a different compound.
# input Recorded Activity for COc1ccc2c(=O)c3cccc(CN[C@@H](C)CO)c3oc2c1 with Mus musculus, please?
# output Non-toxic
